Every entry's value here was drawn from ChEMBL document CHEMBL1134715.

target: Protein farnesyltransferase (Homo sapiens, UniProt P49354+P49356); test: In vitro inhibition against human Farnesyltransferase catalyzed by incorporation of [3H]- FPP into recombinant Ras-CVIM; assay type: protein-complex assay
MEASURE: IC50 (nM)

- CPD SMILES: "N#Cc1ccc(Cn2cncc2CN2CCN(c3cccc(Cl)c3)C(=O)C2)cc1Oc1ccc2c(c1)CCCC2"
  VALUE: 4
- CPD SMILES: "N#Cc1ccc(Cn2cncc2CN2CCN(c3cccc(Cl)c3)C(=O)C2)cc1Oc1ccc(Cl)cc1"
  VALUE: 19
- CPD SMILES: "N#Cc1ccc(Cn2cncc2CN2CCN(c3cccc(Cl)c3)C(=O)C2)cc1Oc1cccc(OCCO)c1"
  VALUE: 2.5
- CPD SMILES: "N#Cc1ccc(Cn2cncc2CN2CCN(c3cccc(Cl)c3)C(=O)C2)cc1Oc1ccc(OCc2ccccc2)cc1"
  VALUE: 32
- CPD SMILES: "N#Cc1ccc(Cn2cncc2CN2CCN(c3cccc(Cl)c3)C(=O)C2)cc1Oc1ccc2ccccc2c1"
  VALUE: 1
